All values here come from patent US12071441B2.

system: influenza A virus minigenome (PB2, PB1, PA, NP; luciferase reporter) in 293T cells, RNP_Hubei; experiment: microbe, parasite or virus in culture; format: cell-based; conditions: HEK-293T, 48 h
pEC50: −log10 of the molar value.
Please provide measured pEC50 for the entries that follow.

INPUT: Recorded pEC50 for CCOC(=O)OCOc1c2n(ncc1=O)[C@@H]([C@H](c1ccccc1)c1cccc(F)c1F)[C@H]1CCCN1C2=O [Example 51] , please?
OUTPUT: > 7.00

List pEC50 for every entry below, keeping the order given.
1. CC(=O)Oc1c2n(ncc1=O)[C@@H]([C@H](c1ccccc1)c1cccc(F)c1F)[C@H]1CCCN1C2=O [Example 58]
2. O=C1c2c(O)c(=O)cnn2[C@@H]([C@H](c2ccccc2)c2c(F)ccc(F)c2F)[C@H]2CCCN12 [Example 16]
3. COc1ccccc1[C@H](c1ccc(F)cc1)[C@H]1[C@H]2CCCN2C(=O)c2c(O)c(=O)cnn21 [Example 6]
4. O=C1c2c(O)c(=O)cnn2[C@@H]([C@H](c2ccc(F)cc2)c2ccc(C(F)(F)F)cc2)[C@H]2CCCN12 [Example 21]
5. COC(C)(C)C(=O)Oc1c2n(ncc1=O)[C@@H]([C@H](c1ccc(F)cc1)c1cccc(F)c1F)[C@H]1CCCN1C2=O [Example 90]
6. CN(C)C(=O)Oc1c2n(ncc1=O)[C@@H]([C@H](c1ccccc1)c1cccc(F)c1F)[C@H]1CCCN1C2=O [Example 35]
7. COCCOC(=O)Oc1c2n(ncc1=O)[C@@H]([C@H](c1cccc(F)c1)c1cccc(F)c1F)[C@H]1CCCN1C2=O [Example 97]

OUTPUT:
1. > 7.00
2. > 7.00
3. 6.00 to 7.00
4. 6.00 to 7.00
5. > 7.00
6. ≤ 6.00
7. > 7.00
